# testedOn: T1, EsCas13d, nuclease-dead (Eubacterium siraeum, UniProt B0MS50, R295A;H300A;R849A;H854A)
# T1 sequence: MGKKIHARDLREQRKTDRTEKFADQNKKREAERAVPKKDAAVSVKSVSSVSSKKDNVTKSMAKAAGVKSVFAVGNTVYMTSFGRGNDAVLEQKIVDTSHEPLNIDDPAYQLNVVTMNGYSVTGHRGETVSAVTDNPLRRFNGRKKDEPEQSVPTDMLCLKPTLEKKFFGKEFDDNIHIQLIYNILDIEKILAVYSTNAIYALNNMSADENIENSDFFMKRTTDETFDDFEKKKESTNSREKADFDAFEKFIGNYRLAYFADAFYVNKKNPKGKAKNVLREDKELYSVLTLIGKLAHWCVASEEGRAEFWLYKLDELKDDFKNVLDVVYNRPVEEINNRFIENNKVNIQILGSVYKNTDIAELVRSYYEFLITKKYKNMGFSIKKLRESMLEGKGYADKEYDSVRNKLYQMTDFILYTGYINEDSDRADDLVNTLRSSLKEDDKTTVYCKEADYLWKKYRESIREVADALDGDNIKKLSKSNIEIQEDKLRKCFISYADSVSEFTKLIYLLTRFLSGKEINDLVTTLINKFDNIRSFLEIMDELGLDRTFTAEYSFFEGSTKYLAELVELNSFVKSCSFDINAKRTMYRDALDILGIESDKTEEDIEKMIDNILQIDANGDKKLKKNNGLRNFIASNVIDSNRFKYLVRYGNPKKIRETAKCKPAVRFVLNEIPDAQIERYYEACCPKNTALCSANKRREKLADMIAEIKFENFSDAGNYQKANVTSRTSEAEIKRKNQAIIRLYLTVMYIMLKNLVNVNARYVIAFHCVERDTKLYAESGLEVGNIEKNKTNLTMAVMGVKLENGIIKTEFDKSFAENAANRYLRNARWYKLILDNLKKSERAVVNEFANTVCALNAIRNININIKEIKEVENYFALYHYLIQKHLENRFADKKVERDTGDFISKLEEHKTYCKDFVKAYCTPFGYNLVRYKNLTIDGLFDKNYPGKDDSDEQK
# measurementDescription: crRNA (strand 1, pre-loaded); Mg2+; 40 mM Tris-HCl pH 7.5, 150 mM NaCl, 6 mM MgCl2, 1 mM DTT, 0.1% Tween-20, 0.2 mg/ml BSA; 25 C; 10 min per concentration, then washed
# conditionSet: tags: His6-TwinStrep-SUMO cleaved; N-terminal SNAP kept (SNAP-Surface 488); label: 3' end held by stalled T7 RNA polymerase
attributeMeasured: Kd (nM)
Answers are plain numbers, in nM.

target 2 MT 5'PFS UAU 3'PFS UAA (mixed) RNA 1: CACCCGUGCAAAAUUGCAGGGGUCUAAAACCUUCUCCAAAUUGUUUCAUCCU RNA 2: GGGAAUGGAUCCACAUCUACGAAUUCUAUAGGAUGAAACAAUUUGGAGAAGUAAAGAUCGGAAGAGCACACGU    18.1
target 2 MT 5'PFS UAC 3'PFS CAU (mixed) RNA 1: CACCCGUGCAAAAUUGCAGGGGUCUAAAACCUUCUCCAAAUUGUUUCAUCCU RNA 2: GGGAAUGGAUCCACAUCUACGAAUUCUACAGGAUGAAACAAUUUGGAGAAGCAUAGAUCGGAAGAGCACACGU    10
target 1 insU 3' of 18,insU 3' of 17 (mixed) RNA 1: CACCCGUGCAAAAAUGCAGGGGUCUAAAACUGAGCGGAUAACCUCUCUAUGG RNA 2: GGGAAUGGAUCCACAUCUACGAAUUCGUACCAUAUGUAGAGGUUAUCCGCUCACCGAGAUCGGAAGAGCACACGU    47

Give me Kd for each of these binders, listed below.
1. target 3 U21C,U22A (mixed) RNA 1: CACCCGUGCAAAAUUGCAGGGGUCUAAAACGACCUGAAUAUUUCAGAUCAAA RNA 2: GGGAAUGGAUCCACAUCUACGAAUUCGUUACUGAUCUGAAAUAUUCAGGUCUGCAGAUCGGAAGAGCACACGU
2. target 1 C6U,C7G (mixed) RNA 1: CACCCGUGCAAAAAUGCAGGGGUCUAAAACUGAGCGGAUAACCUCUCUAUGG RNA 2: GGGAAUGGAUCCACAUCUACGAAUUCGUACCAUAGAGAGGUUAUGUGCUCACCGAGAUCGGAAGAGCACACGU
3. target 2 MT 5'PFS ACA 3'PFS UCC (mixed) RNA 1: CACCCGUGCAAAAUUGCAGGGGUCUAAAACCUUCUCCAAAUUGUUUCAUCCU RNA 2: GGGAAUGGAUCCACAUCUACGAAUUCACAAGGAUGAAACAAUUUGGAGAAGUCCAGAUCGGAAGAGCACACGU
4. target 1 insC 3' of 11,insU 3' of 5 (mixed) RNA 1: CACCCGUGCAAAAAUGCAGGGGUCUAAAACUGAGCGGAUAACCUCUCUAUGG RNA 2: GGGAAUGGAUCCACAUCUACGAAUUCGUACCAUAGAGAGGUCUAUCCGUCUCACCGAGAUCGGAAGAGCACACGU

1. 30.5
2. 7.9
3. 10
4. 15
